Listed next: entries and their corresponding RL (ratio of the longest fragments) 2 h.
Experiment: Stability of siRNAs in human plasma in vitro (gel, ratio of the longest fragments RL)
Type: in vitro ADME
Settings: 50% human plasma, 37° C., 2 h
Oligonucleotides are written 5' to 3', each unit as a sugar letter and its base; * is a phosphorothioate linkage, no mark a phosphodiester; rarer units and linkages stand in square brackets, end groups in braces. Plain capitals give the bases only. d = 2'-deoxy (DNA); m = 2'-O-methyl; r = 2'-OH (RNA); f = 2'-fluoro
measure name: RL (ratio of the longest fragments) 2 h (%)

2d: sense CmCmUmUmGAGGCmAUmACmUmUmCmAAAdTdT, antisense UfUUfGAAGUfAUfGCCUfCAAGGdTdT (sense mCmCmUmUrGrArGrGmCrAmUrAmCmUmUmCrArArAdTdT; antisense fUrUfUrGrArArGfUrAfUrGrCrCfUrCrArArGrGdTdT)    97.6
A4: siRNA of CN102140461B; sense CmCmUmUmGAGGCmAUmACmUmUmCmAAAdTdT, antisense UfUmUfGAAGUfAUfGCCUfCAAGGdTdT (sense CCUUGAGGCAUACUUCAAATT; antisense UUUGAAGUAUGCCUCAAGGTT; sense: DNA at T, 2'-O-methyl at CU, RNA at AG, backbone not given here; antisense: sugars from the 5' end fmfrrrrfrfrrrfrrrrrdd, backbone not given here) [reference compound]    97.5
X2M2(S−−): sense CmCmUmUmGAGGCmAUmACmUmUmCmAAAdTdT, antisense UfUmUfGAAGUfAUGCCUfCAAGGdTdT (as printed in the source, key not given here)    111.3
14d: sense CmCmUmUmGAGGCmAUmACmUmUmCmAAAdTdT, antisense UfUmUfGAAGUfAUfGCCUCAAGGdTdT (sense mCmCmUmUrGrArGrGmCrAmUrAmCmUmUmCrArArAdTdT; antisense fUmUfUrGrArArGfUrAfUrGrCrCrUrCrArArGrGdTdT)    94.6
